# System: HEK-293T
# Assay Procedure: Multiplex assay against HEK293T
# Format: toxicity, cell-based
# Test Parameters: human, 24 h, 10 µM, compound concentration 10 uM, replicate 2
Non-standard residues stand in square brackets, D forms with d. Residues, ends and D or L forms follow the SMILES beside them.
Catalogue of Population Healthy Nuclei (%) values
Measured Property: Population Healthy Nuclei (%)

[
  {
    "Compound": "Cc1ccc(OCC(O)C(C)NC(C)C)c2c1CCC2.Cl (stereo not given)",
    "Measured Property": "Population Healthy Nuclei (%)",
    "Assay Value": "78%"
  },
  {
    "Compound": "CCCCC[C@H](O)/C=C/[C@H]1[C@H](O)CC(=O)[C@@H]1CCCCCCC(=O)O",
    "Measured Property": "Population Healthy Nuclei (%)",
    "Assay Value": "79%"
  },
  {
    "Compound": "COc1cc(C(=O)N2CC[C@@H](O)[C@@H](N)C2)cc2nc(-c3cc4ccccc4n3CC3CC3)n(C)c12.Cl",
    "Measured Property": "Population Healthy Nuclei (%)",
    "Assay Value": "78%"
  },
  {
    "Compound": "CCCCCCNC(=O)Nc1ccc(S(=O)(=O)Nc2ccc(CCNC[C@H](O)COc3ccc(O)cc3)cc2)cc1",
    "Measured Property": "Population Healthy Nuclei (%)",
    "Assay Value": "83%"
  },
  {
    "Compound": "CN1CCN(c2ccc(Nc3c4ccccc4nc4ccccc34)cc2)CC1.Cl.Cl.O",
    "Measured Property": "Population Healthy Nuclei (%)",
    "Assay Value": "53%"
  },
  {
    "Compound": "CN1CCN2c3ccccc3Cc3ccccc3C2C1.Cl (stereo not given) [MIANSERIN HYDROCHLORIDE]",
    "Measured Property": "Population Healthy Nuclei (%)",
    "Assay Value": "84%"
  },
  {
    "Compound": "N[C@](CC1c2ccccc2Oc2ccccc21)(C(=O)O)[C@H]1C[C@@H]1C(=O)O",
    "Measured Property": "Population Healthy Nuclei (%)",
    "Assay Value": "82%"
  },
  {
    "Compound": "COCCn1c(C)c(C)s/c1=N\\C(=O)C1C(C)(C)C1(C)C",
    "Measured Property": "Population Healthy Nuclei (%)",
    "Assay Value": "75%"
  },
  {
    "Compound": "O=c1nc2[nH]c3ccccc3nc-2c(=O)[nH]1",
    "Measured Property": "Population Healthy Nuclei (%)",
    "Assay Value": "72%"
  },
  {
    "Compound": "Cc1cc(=O)n(C)c2cc(N3C(=O)CC[C@H](NS(=O)(=O)CC(C)C)[C@H]3c3ccc(Cl)cc3)ccc12",
    "Measured Property": "Population Healthy Nuclei (%)",
    "Assay Value": "67%"
  },
  {
    "Compound": "Cc1nn(C)c2nc(NNC(=O)Nc3cc(Cl)nc(Cl)c3)cc(C(C)C)c12",
    "Measured Property": "Population Healthy Nuclei (%)",
    "Assay Value": "78%"
  },
  {
    "Compound": "COc1cc2nc(N3CCN(C(=O)c4ccco4)CC3)nc(N)c2cc1OC.Cl [PRAZOSIN HYDROCHLORIDE]",
    "Measured Property": "Population Healthy Nuclei (%)",
    "Assay Value": "78%"
  },
  {
    "Compound": "CCn1c(-c2nc3cc(C(=O)N4CCCC(N)C4)ccc3n2C)cc2ccccc21.Cl (stereo not given)",
    "Measured Property": "Population Healthy Nuclei (%)",
    "Assay Value": "78%"
  },
  {
    "Compound": "COc1cc(Nc2ncc3c(n2)-c2ccc(Cl)cc2C(c2c(F)cccc2OC)=NC3)ccc1C(=O)O",
    "Measured Property": "Population Healthy Nuclei (%)",
    "Assay Value": "55%"
  },
  {
    "Compound": "Cn1cc(C(=O)OCC2CCN(CCNS(C)(=O)=O)CC2)c2ccccc21",
    "Measured Property": "Population Healthy Nuclei (%)",
    "Assay Value": "79%"
  },
  {
    "Compound": "CCC(=O)OCC(=O)[C@@]1(OC(=O)CC)[C@@H](C)C[C@H]2[C@@H]3CCC4=CC(=O)C=C[C@]4(C)[C@@]3(Cl)[C@@H](O)C[C@@]21C [BECLOMETHASONE DIPROPIONATE]",
    "Measured Property": "Population Healthy Nuclei (%)",
    "Assay Value": "71%"
  },
  {
    "Compound": "COC(c1ccccc1)(c1ccccc1)[C@H](Oc1nc(C)cc(C)n1)C(=O)O",
    "Measured Property": "Population Healthy Nuclei (%)",
    "Assay Value": "78%"
  },
  {
    "Compound": "Cc1sc2c(c1C)C(c1ccc(Cl)cc1)=N[C@H](CC(=O)OC(C)(C)C)c1nnc(C)n1-2",
    "Measured Property": "Population Healthy Nuclei (%)",
    "Assay Value": "76%"
  },
  {
    "Compound": "CSc1nc(NC2CCCC2)c([N+](=O)[O-])c(NC2CCCC2)n1",
    "Measured Property": "Population Healthy Nuclei (%)",
    "Assay Value": "83%"
  },
  {
    "Compound": "O=C(NCCNCC(O)COc1ccc(O)cc1)N1CCOCC1.O=C(NCCNCC(O)COc1ccc(O)cc1)N1CCOCC1.O=C(O)/C=C/C(=O)O (stereo not given) [XAMOTEROL FUMARATE]",
    "Measured Property": "Population Healthy Nuclei (%)",
    "Assay Value": "85%"
  },
  {
    "Compound": "C=CCN1C[C@H](C(=O)N(CCCN(C)C)C(=O)NCC)C[C@@H]2c3cccc4[nH]cc(c34)C[C@H]21",
    "Measured Property": "Population Healthy Nuclei (%)",
    "Assay Value": "79%"
  },
  {
    "Compound": "OCCCNc1cc(-c2ccnc(Nc3cccc(Cl)c3)n2)ccn1",
    "Measured Property": "Population Healthy Nuclei (%)",
    "Assay Value": "54%"
  },
  {
    "Compound": "CC(F)(F)CN1CCOc2c(nn(-c3ccccc3Cl)c2-c2ccc(Cl)cc2)C1=O",
    "Measured Property": "Population Healthy Nuclei (%)",
    "Assay Value": "80%"
  },
  {
    "Compound": "CN(C)C(=O)Cn1cc(-c2ccc(-c3nnc4ccccn34)cc2)cn1",
    "Measured Property": "Population Healthy Nuclei (%)",
    "Assay Value": "79%"
  },
  {
    "Compound": "Cc1c(Cc2ccc3ccccc3n2)c2cc(F)ccc2n1CC(=O)O",
    "Measured Property": "Population Healthy Nuclei (%)",
    "Assay Value": "77%"
  },
  {
    "Compound": "CN1CCC(C(=O)c2cccc(NC(=O)c3c(F)cc(F)cc3F)n2)CC1",
    "Measured Property": "Population Healthy Nuclei (%)",
    "Assay Value": "81%"
  },
  {
    "Compound": "COc1c(Nc2ccc(S(C)(=O)=O)nc2C)ncnc1OC1CCN(C(=O)OC(C)C)CC1",
    "Measured Property": "Population Healthy Nuclei (%)",
    "Assay Value": "71%"
  },
  {
    "Compound": "CCc1nn2c(C)cc(C)nc2c1Cc1ccc(-c2nnc(C3CCNCC3)o2)cc1",
    "Measured Property": "Population Healthy Nuclei (%)",
    "Assay Value": "77%"
  },
  {
    "Compound": "CC(C)(C)c1ccc(CSc2cnn(C(C)(C)C)c(=O)c2Cl)cc1",
    "Measured Property": "Population Healthy Nuclei (%)",
    "Assay Value": "70%"
  },
  {
    "Compound": "CC(C)C[C@@H]1NC(=O)[C@@H](C(C)C)NC(=O)[C@@H]2CCCN2C(=O)[C@@H](CC(=O)O)NC(=O)[C@@H](Cc2c[nH]c3ccccc23)NC1=O [BQ-123] (cyclo(L[dW][dD]P[dV]))",
    "Measured Property": "Population Healthy Nuclei (%)",
    "Assay Value": "78%"
  }
]
